Cited source: ChEMBL document CHEMBL5058577

Each entry below carries its recorded Total Cell Count.
Tested on: Fibroblast
Assay: Multiplex assay against human fibroblast
Assay type: toxicity, cell-based
Details: 48 h, 10 µM, compound concentration 10 uM, replicate 1
Non-standard residues stand in square brackets, D forms with d. Residues, ends and D or L forms follow the SMILES beside them.
Respond using a number only.

Known Total Cell Count results, listed for orientation:
Incoming: Look up Total Cell Count for this compound: Cn1cc(C(=O)OCC2CCN(CCNS(C)(=O)=O)CC2)c2ccccc21
Outgoing: 199

Incoming: Ok, now CCCCC[C@H](O)/C=C/[C@H]1[C@H](O)CC(=O)[C@@H]1CCCCCCC(=O)O
Outgoing: 144

Incoming: And then COc1c(Nc2ccc(S(C)(=O)=O)nc2C)ncnc1OC1CCN(C(=O)OC(C)C)CC1 , what is it?
Outgoing: 131

Continuing:
Incoming: For the compound shown here, CC(C)C[C@@H]1NC(=O)[C@@H](C(C)C)NC(=O)[C@@H]2CCCN2C(=O)[C@@H](CC(=O)O)NC(=O)[C@@H](Cc2c[nH]c3ccccc23)NC1=O [BQ-123] (cyclo(L[dW][dD]P[dV])) , give the reported Total Cell Count.
Outgoing: 129

Incoming: Param item: Cc1cc(-c2ccc3c(c2)CC[C@H]3N2CC3(CCN(C(=O)Cc4cn5cc(C)sc5n4)CC3)C2)ncn1
Outgoing: 192

Incoming: What do you get for CC(F)(F)CN1CCOc2c(nn(-c3ccccc3Cl)c2-c2ccc(Cl)cc2)C1=O ?
Outgoing: 120

Incoming: Do the same for COc1cc2nc(N3CCN(C(=O)COc4c(OC)cccc4C(C)C)CC3)nc(N)c2cc1OC.Cl.Cl please
Outgoing: 358

Incoming: Same again, this time with S=C(NCCCc1c[nH]cn1)NCCCN(Cc1ccc(Cl)c(Cl)c1)c1ccc(Br)cn1
Outgoing: 230

Incoming: Now consider CC(C)(C)c1ccc(CSc2cnn(C(C)(C)C)c(=O)c2Cl)cc1 and answer again.
Outgoing: 143

Incoming: Note, next up: COc1cc(C(=O)N2CC[C@@H](O)[C@@H](N)C2)cc2nc(-c3cc4ccccc4n3CC3CC3)n(C)c12.Cl
Outgoing: 256

----------
Tested on: Fibroblast
Experiment: Multiplex assay against human fibroblast
Assay type: toxicity, cell-based
Conditions: 24 h, 10 µM, compound concentration 10 uM, replicate 1
Please mark y if the recorded Population Healthy Nuclei (%) is equal to or greater than 60%, and n if it falls below.

Here's what some known entries look like.
Incoming: Is Population Healthy Nuclei (%) for N[C@](CC1c2ccccc2Oc2ccccc21)(C(=O)O)[C@H]1C[C@@H]1C(=O)O at or above 60%?
Outgoing: y

Incoming: Request: O=c1nc2[nH]c3ccccc3nc-2c(=O)[nH]1
Outgoing: y

Incoming: // next record CN(C)C/C=C/C(=O)Nc1ccc(C(=O)N2CCCC(Nc3ncc(Cl)c(-c4c[nH]c5ccccc45)n3)C2)cc1 (stereo unspecified)
Outgoing: n

Incoming: Input Cc1cc(NC(=O)NCCN2CCC(O)(Cc3ccccc3)CC2)c2ccccc2n1
Outgoing: y

Incoming: Next record, please: COc1ccc2[nH]c(I)c(CCNC(C)=O)c2c1
Outgoing: n

Incoming: Continue with CC(C)C[C@H](CO)Nc1nc(S[C@@H](C)c2ccccc2)nc2nc(N)sc12
Outgoing: y

Incoming: CSc1nc(NC2CCCC2)c([N+](=O)[O-])c(NC2CCCC2)n1 ?
Outgoing: y

Incoming: Repeat with Cc1ccc(OCC(O)C(C)NC(C)C)c2c1CCC2.Cl (stereo unspecified)
Outgoing: n

***
Incoming: Given the entry COc1cc2nc(N3CCN(C(=O)c4ccco4)CC3)nc(N)c2cc1OC.Cl [PRAZOSIN HYDROCHLORIDE] , answer whether its Population Healthy Nuclei (%) meets or surpasses 60%.
Outgoing: y

Incoming: Same thing, different compound: Nc1nc(-c2ccco2)c2cnn(Cc3ccccc3F)c2n1
Outgoing: y
